Give inhibition at 100 µM for every item shown.
Test system: MCF7 cell line
test name: Sulforhodamine B
Type: cell-based, human
measurement parameters: Homo sapiens, MCF7, 48 h, read-out: Percentage of cell growth inhibition at [100 μM] MCF7
State just the number; it will be interpreted in %.

Quote MCF7 cell line inhibition at 100 µM for entry Cc1nc(NN=Cc2ccc(OCC(=O)N3CCN(C(=O)COc4ccc(C=NNc5nc(C)c(N=Nc6ccc([N+](=O)[O-])cc6)s5)cc4)CC3)cc2)sc1N=Nc1ccc([N+](=O)[O-])cc1 [Compound 9e] . 84.6

Quote MCF7 cell line inhibition at 100 µM for entry Cc1ccc(N=Nc2sc(NN=Cc3ccccc3OCC(=O)N3CCN(C(=O)COc4ccccc4C=NNc4nc(C)c(N=Nc5ccc(C)cc5)s4)CC3)nc2C)cc1 [Compound 9f] . 85.5

Quote MCF7 cell line inhibition at 100 µM for entry O=C(COc1ccc(C=NN=c2sc(-c3ccccc3)nn2-c2ccccc2)cc1)N1CCN(C(=O)COc2ccc(C=NN=c3sc(-c4ccccc4)nn3-c3ccccc3)cc2)CC1 [Compound 13a] . 88.2

Quote MCF7 cell line inhibition at 100 µM for entry Cc1nc(NN=Cc2ccccc2OCC(=O)N2CCN(C(=O)COc3ccccc3C=NNc3nc(C)c(N=Nc4ccc([N+](=O)[O-])cc4)s3)CC2)sc1N=Nc1ccc([N+](=O)[O-])cc1 [Compound 9j] . 71.4

Quote MCF7 cell line inhibition at 100 µM for entry Cc1nc(NN=Cc2ccccc2OCC(=O)N2CCN(C(=O)COc3ccccc3C=NNc3nc(C)c(N=Nc4ccc(Br)cc4)s3)CC2)sc1N=Nc1ccc(Br)cc1 [Compound 9i] . 89.9

Quote MCF7 cell line inhibition at 100 µM for entry O=C(COc1ccc(C=NN=c2[nH]c(-c3cc4ccccc4oc3=O)cs2)cc1)N1CCN(C(=O)COc2ccc(C=NN=c3[nH]c(-c4cc5ccccc5oc4=O)cs3)cc2)CC1 [Compound 15e] . 68.4

Quote MCF7 cell line inhibition at 100 µM for entry NC(=S)NN=Cc1ccc(OCC(=O)N2CCN(C(=O)COc3ccc(C=NNC(N)=S)cc3)CC2)cc1 [Compound 7a] . 85.3

Quote MCF7 cell line inhibition at 100 µM for entry O=C(COc1ccccc1C=NN=c1sc(-c2ccc(Cl)cc2)nn1-c1ccccc1)N1CCN(C(=O)COc2ccccc2C=NN=c2sc(-c3ccc(Cl)cc3)nn2-c2ccccc2)CC1 [Compound 13d] . 86.4

Quote MCF7 cell line inhibition at 100 µM for entry O=C(COc1ccc(C=NN=c2sc(-c3ccc(Cl)cc3)nn2-c2ccccc2)cc1)N1CCN(C(=O)COc2ccc(C=NN=c3sc(-c4ccc(Cl)cc4)nn3-c3ccccc3)cc2)CC1 [Compound 13b] . 90.8

Quote MCF7 cell line inhibition at 100 µM for entry Cc1nc(NN=Cc2ccc(OCC(=O)N3CCN(C(=O)COc4ccc(C=NNc5nc(C)c(N=Nc6ccc(Cl)cc6)s5)cc4)CC3)cc2)sc1N=Nc1ccc(Cl)cc1 [Compound 9d] . 90.5

Quote MCF7 cell line inhibition at 100 µM for entry O=C(COc1ccccc1C=NN=c1[nH]c(-c2cc3ccccc3oc2=O)cs1)N1CCN(C(=O)COc2ccccc2C=NN=c2[nH]c(-c3cc4ccccc4oc3=O)cs2)CC1 [Compound 15h] . 46.7

---

Test system: HEPG2 cell line
test name: Sulforhodamine B
Assay type: cell-based, human
measurement parameters: Homo sapiens, HepG2, 48 h, read-out: IC50 (μM) ± SD HEPG2
Exam item: assign 1 to entries whose IC50 is below 30 µM and 0 to entries at or above 30 µM. Note that a value of exactly 30 µM receives 0.

Could you please tell me whether IC50 recorded for Cc1nc(NN=Cc2ccccc2OCC(=O)N2CCN(C(=O)COc3ccccc3C=NNc3nc(C)c(N=Nc4ccc(Br)cc4)s3)CC2)sc1N=Nc1ccc(Br)cc1 [Compound 9i] is less than 30 µM? 1

Could you please tell me whether IC50 recorded for Cc1nc(NN=Cc2ccc(OCC(=O)N3CCN(C(=O)COc4ccc(C=NNc5nc(C)c(N=Nc6ccc([N+](=O)[O-])cc6)s5)cc4)CC3)cc2)sc1N=Nc1ccc([N+](=O)[O-])cc1 [Compound 9e] is less than 30 µM? 0

Could you please tell me whether IC50 recorded for O=C(COc1ccc(C=NN=c2sc(-c3ccc(Cl)cc3)nn2-c2ccccc2)cc1)N1CCN(C(=O)COc2ccc(C=NN=c3sc(-c4ccc(Cl)cc4)nn3-c3ccccc3)cc2)CC1 [Compound 13b] is less than 30 µM? 1

Could you please tell me whether IC50 recorded for Cc1ccc(N=Nc2sc(NN=Cc3ccc(OCC(=O)N4CCN(C(=O)COc5ccc(C=NNc6nc(C)c(N=Nc7ccc(C)cc7)s6)cc5)CC4)cc3)nc2C)cc1 [Compound 9b] is less than 30 µM? 1

Could you please tell me whether IC50 recorded for Cc1nc(NN=Cc2ccc(OCC(=O)N3CCN(C(=O)COc4ccc(C=NNc5nc(C)c(N=Nc6ccccc6)s5)cc4)CC3)cc2)sc1N=Nc1ccccc1 [Compound 9a] is less than 30 µM? 1

Could you please tell me whether IC50 recorded for NC(=S)NN=Cc1ccccc1OCC(=O)N1CCN(C(=O)COc2ccccc2C=NNC(N)=S)CC1 [Compound 7b] is less than 30 µM? 0

---

Give inhibition at 100 µM for every item shown.
Tested on: MCF7 cell line
test name: Sulforhodamine B
Type: cell-based, human
measurement parameters: Homo sapiens, MCF7, 48 h, read-out: Percentage of cell growth inhibition at [100 μM] MCF7
State just the number; it will be interpreted in %.

Quote MCF7 cell line inhibition at 100 µM for entry `Cc1nc(NN=Cc2ccc(OCC(=O)N3CCN(C(=O)COc4ccc(C=NNc5nc(C)c(N=Nc6ccccc6)s5)cc4)CC3)cc2)sc1N=Nc1ccccc1` . 85.9

Quote MCF7 cell line inhibition at 100 µM for entry `Cc1ccc(N=Nc2sc(NN=Cc3ccc(OCC(=O)N4CCN(C(=O)COc5ccc(C=NNc6nc(C)c(N=Nc7ccc(C)cc7)s6)cc5)CC4)cc3)nc2C)cc1` . 89.5

Quote MCF7 cell line inhibition at 100 µM for entry `Cc1nc(NN=Cc2ccccc2OCC(=O)N2CCN(C(=O)COc3ccccc3C=NNc3nc(C)c(N=Nc4ccc(Cl)cc4)s3)CC2)sc1N=Nc1ccc(Cl)cc1` . 81

---

Give inhibition at 100 µM for every item shown.
Tested on: MCF7 cell line
test name: Sulforhodamine B
Format: cell-based, human
measurement parameters: Homo sapiens, MCF7, 48 h, read-out: Percentage of cell growth inhibition at [100 μM] MCF7
State just the number; it will be interpreted in %.

Name the recorded inhibition at 100 µM of the item O=C(COc1ccccc1C=NN=c1sc(-c2ccccc2)nn1-c1ccccc1)N1CCN(C(=O)COc2ccccc2C=NN=c2sc(-c3ccccc3)nn2-c2ccccc2)CC1 [Compound 13c] in your answer. 86.2

Name the recorded inhibition at 100 µM of the item NC(=S)NN=Cc1ccccc1OCC(=O)N1CCN(C(=O)COc2ccccc2C=NNC(N)=S)CC1 [Compound 7b] in your answer. 88.9

Name the recorded inhibition at 100 µM of the item COc1ccc(-c2csc(=NN=Cc3ccc(OCC(=O)N4CCN(C(=O)COc5ccc(C=NN=c6[nH]c(-c7ccc(OC)cc7)cs6)cc5)CC4)cc3)[nH]2)cc1 [Compound 15b] in your answer. 50.6

Name the recorded inhibition at 100 µM of the item O=C(COc1ccc(C=NN=c2[nH]c(-c3ccccc3)cs2)cc1)N1CCN(C(=O)COc2ccc(C=NN=c3[nH]c(-c4ccccc4)cs3)cc2)CC1 [Compound 15a] in your answer. 87.3

Name the recorded inhibition at 100 µM of the item Cc1nc(NN=Cc2ccccc2OCC(=O)N2CCN(C(=O)COc3ccccc3C=NNc3nc(C)c(N=Nc4ccc(F)cc4)s3)CC2)sc1N=Nc1ccc(F)cc1 [Compound 9g] in your answer. 88.7

Name the recorded inhibition at 100 µM of the item Cc1nc(NN=Cc2ccc(OCC(=O)N3CCN(C(=O)COc4ccc(C=NNc5nc(C)c(N=Nc6ccc(F)cc6)s5)cc4)CC3)cc2)sc1N=Nc1ccc(F)cc1 [Compound 9c] in your answer. 90.3

---

recorded metric: pIC50
Remember the convention: pIC50 equals -log10 of concentration in molar.

Quote EGFR kinase (Homo sapiens, UniProt P00533) pIC50 for entry Cc1nc(NN=Cc2ccc(OCC(=O)N3CCN(C(=O)COc4ccc(C=NNc5nc(C)c(N=Nc6ccccc6)s5)cc4)CC3)cc2)sc1N=Nc1ccccc1 [Compound 9a] . 7.92

Quote EGFR kinase (Homo sapiens, UniProt P00533) pIC50 for entry NC(=S)NN=Cc1ccccc1OCC(=O)N1CCN(C(=O)COc2ccccc2C=NNC(N)=S)CC1 [Compound 7b] . 8.46

Quote EGFR kinase (Homo sapiens, UniProt P00533) pIC50 for entry Cc1nc(NN=Cc2ccccc2OCC(=O)N2CCN(C(=O)COc3ccccc3C=NNc3nc(C)c(N=Nc4ccc(Br)cc4)s3)CC2)sc1N=Nc1ccc(Br)cc1 [Compound 9i] . 8.92

Quote EGFR kinase (Homo sapiens, UniProt P00533) pIC50 for entry Cc1ccc(N=Nc2sc(NN=Cc3ccc(OCC(=O)N4CCN(C(=O)COc5ccc(C=NNc6nc(C)c(N=Nc7ccc(C)cc7)s6)cc5)CC4)cc3)nc2C)cc1 [Compound 9b] . 7.26
